- ASSAYED SYSTEM: cloned mouse KCNQ2 (mKCNQ2) (Mus musculus, UniProt Q9Z351)
- Sequence (Q9Z351 whole entry): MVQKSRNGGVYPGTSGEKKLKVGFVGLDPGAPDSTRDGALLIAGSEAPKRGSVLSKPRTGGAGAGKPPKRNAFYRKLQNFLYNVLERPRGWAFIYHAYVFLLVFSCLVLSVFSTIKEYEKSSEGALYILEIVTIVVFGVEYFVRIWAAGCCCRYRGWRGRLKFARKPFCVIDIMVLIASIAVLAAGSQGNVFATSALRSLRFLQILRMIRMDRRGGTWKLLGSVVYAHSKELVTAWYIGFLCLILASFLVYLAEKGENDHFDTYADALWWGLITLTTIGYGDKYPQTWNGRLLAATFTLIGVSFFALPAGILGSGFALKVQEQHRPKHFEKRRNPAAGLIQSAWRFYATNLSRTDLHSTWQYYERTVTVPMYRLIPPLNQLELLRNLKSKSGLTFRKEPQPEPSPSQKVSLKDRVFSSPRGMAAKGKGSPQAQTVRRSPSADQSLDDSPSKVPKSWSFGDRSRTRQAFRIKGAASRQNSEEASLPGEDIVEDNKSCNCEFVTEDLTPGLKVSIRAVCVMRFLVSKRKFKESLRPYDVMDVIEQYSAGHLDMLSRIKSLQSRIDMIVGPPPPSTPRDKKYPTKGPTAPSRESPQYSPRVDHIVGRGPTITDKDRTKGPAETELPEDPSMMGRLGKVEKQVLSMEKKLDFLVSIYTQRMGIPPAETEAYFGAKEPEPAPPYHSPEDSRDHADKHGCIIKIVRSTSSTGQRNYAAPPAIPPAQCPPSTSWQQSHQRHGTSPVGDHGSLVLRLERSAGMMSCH
- ASSAY PROTOCOL: KCNQ oocyte two-electrode voltage clamp, whole-cell outward current
- Format: cell-based
- SETTINGS: 10 μM; single holding potential (−40 μM [sic]); Xenopus oocytes
Please respond with reported activity at 10 µM for every item in the list.
One number for each entry, in %.

Known activity at 10 µM results, listed for orientation:
MOLECULE	activity at 10 µM / %
CC(NC(=O)/C=C/c1cccc(F)c1)c1ccc2c(c1)OCCO2 (racemic)	135
C[C@H](NC(=O)/C=C/c1ccccc1)c1cccc(N2CCOCC2)c1	197
COC(=O)N1CCc2ccc(C(C)NC(=O)/C=C/c3ccccc3)cc2C1 (racemic)	187

Next, consider the following molecule.
Query :: Look up and report measured activity at 10 µM for this entry: COC(=O)N1CCc2ccc(C(C)NC(=O)/C=C/c3ccccc3C)cc2C1 (racemic)
Result :: 126

FYI, the data here is from patent US6831080B2.
